Answer each item with its documented growth inhibition.
Assay: NCI Yeast Anticancer Drug Screen. Data for the mlh1 rad18 strain (AID 175)
Settings: S. cerevisiae mlh1 rad18 strain growth inhibition; at 50.0 µM; active compounds read high
About 79,000 compounds went through this panel and 15% of them were active in at least one assay; those are over-represented in the sample as a whole. Where a SMILES comes first, the peptide text is derived from it. [ ]: non-standard residue; d: D form. ξ: configuration not given here. ξPhe(4-N(CH2CH2Cl)2) = NC(Cc1ccc(N(CCCl)CCCl)cc1)C(=O)O
Give the value, in units of %, as a plain number.

Exercise: Fill in the blank: the reported growth inhibition of CCOP(=O)(OCC)/C(C#N)=C/c1cccc(OC)c1 is ____.
Solution: 63

Exercise: Consider the compound shown here: CCOC(OCC)c1ccc2c(c1)OCO2 What is its recorded growth inhibition?
Solution: 11.8

Exercise: // lookup growth inhibition for CCOC(=O)C(Cc1ccc(N(CCCl)CCCl)cc1)NC(=O)C(Cc1ccccc1)NC(=O)C(NC(=O)CNC(=O)C1CCCN1)C(C)C (stereo not given) (H-PGVF[ξPhe(4-N(CH2CH2Cl)2)]-OEt; configuration not given here)
Solution: 29.6

Exercise: I'd like to know its growth inhibition. The compound in question is O=C(O)[C@H](O)[C@@H](O)C(=O)O.[Pb]
Solution: -9.2

Exercise: // lookup growth inhibition for CCc1ccccc1[N+](=O)[O-]
Solution: 21.2

Exercise: Dear colleague, I am looking for the recorded growth inhibition of the following compound: CCC[As](=O)(O)CC[As](=O)(O)CCC
Solution: 14.4

Exercise: # growth inhibition lookup, item [Cl][Hg][c]1cccs1
Solution: 99.6

Exercise: Consider the compound CC1=C2[C@H]3OC(=O)[C@@H](C)[C@@H]3CC[C@@]2(C)C=CC1=O and give its measured growth inhibition.
Solution: 12.6

Exercise: # growth inhibition lookup, item O=C(NCC(O)CO)c1c([N+](=O)[O-])ccc(N(CCCl)CCCl)c1[N+](=O)[O-] (stereo not given)
Solution: 21

Exercise: Record request: growth inhibition value, item CCCCCCCCCCCCCCCCS(=O)(=O)c1ccc(S(=O)(=O)F)cc1NC(=O)C(F)(F)F
Solution: 8.2

src = PubChem BioAssay (NCI)
